// values below are reported logD
Assay: physchem
Details: 1-octanol/TAPSO buffer, pH 7.4
Description: 1-Octanol-TAPSO buffer distribution coefficient, log D of the compound at pH 7.4 by shake-flask method
Just the number, please, no unit after it.

Field: example entries. Status: answers known.
> print(dat)
                              smiles.record  reported.endpoint  endpoint.value
1  CN(CCO)CCCCC[C@H]1CC[C@H](N(C)S(=O)(=O)c2ccc(C(F)(F)F)cc2)CC1.O=C(O)/C=C/C(=O)O               logD            3.07
2  CCN(CCO)CCCC#C[C@H]1CC[C@H](N(C)C(=O)Oc2ccc(Cl)cc2)CC1.Cl               logD            2.51
3  CCN(CCO)C[C@H]1CC[C@H](CCN(C)C(=O)Oc2ccc(C(F)(F)F)cc2)CC1.O=C(O)CC(O)(CC(=O)O)C(=O)O               logD            2.53
4  C=CCN(C)CCCCCCOc1ccc(C(=O)c2ccc(Br)cc2)c(F)c1.O=C(O)/C=C/C(=O)O               logD            3.92

// query Name the recorded logD for `C=CCN(C)CCCCC[C@H]1CC[C@H](N(C)C(=O)Oc2ccc(C(F)(F)F)cc2)CC1.O=C(O)CC(O)(CC(=O)O)C(=O)O` .
// result 3.48
